testDescription: Solubility screening up to 5 mg/mL at RT in aqueous acid media (Examples 1 to 6)
Type: physicochemical
conditionParameters: 170 mM acetic acid aqueous medium, pH 3.16, aqueous buffer, thermodynamic from solid, 170 mM Acetic acid, solution pH 3.16, stirred 24 h at RT, free base; read-out: Drug Solubility
Description: Solubility of Compound A was conducted by adding a known quantity of drug to specific volume of aqueous media followed by 24 hour agitation at room temperature (RT).
observedProperty: solubility at 24 h

Ask | solubility at 24 h for CCn1nc(C)cc1C(=O)Nc1nc2cc(C(N)=O)cc(OC)c2n1C/C=C/Cn1c(NC(=O)c2cc(C)nn2CC)nc2cc(C(N)=O)cc(OCCCN3CCOCC3)c21 [Compound A] ?
Reply | > 3.5 mg/mL

###

testDescription: Solubility in 20 mM acetic, citric and L-aspartic aqueous media as a function of pH (Example 14)
Type: physicochemical
conditionParameters: 22 °C, aqueous buffer, thermodynamic from solid; 20 mM L-aspartic acid media, pH 3.05, 22 ± 1° C., Compound A in excess; read-out: Solubility
observedProperty: solubility (µg/mL)
Respond numerically; units are µg/mL and should not be typed.

Ask | solubility for CCn1nc(C)cc1C(=O)Nc1nc2cc(C(N)=O)cc(OC)c2n1C/C=C/Cn1c(NC(=O)c2cc(C)nn2CC)nc2cc(C(N)=O)cc(OCCCN3CCOCC3)c21 [Compound A] ?
Reply | 5270

###

testDescription: Solubility in 20 mM acetic, citric and L-aspartic aqueous media as a function of pH (Example 14)
Format: physicochemical
conditionParameters: 20 mM citric acid aqueous media, 22 °C, aqueous buffer, thermodynamic from solid; 20 mM citric acid media, pH 6.92, 22 ± 1° C., Compound A in excess; read-out: Solubility
observedProperty: solubility (µg/mL)
Respond numerically; units are µg/mL and should not be typed.

Ask | solubility for CCn1nc(C)cc1C(=O)Nc1nc2cc(C(N)=O)cc(OC)c2n1C/C=C/Cn1c(NC(=O)c2cc(C)nn2CC)nc2cc(C(N)=O)cc(OCCCN3CCOCC3)c21 ?
Reply | 0.5

###

testDescription: Solubility in 20 mM acetic, citric and L-aspartic aqueous media as a function of pH (Example 14)
Type: physicochemical
conditionParameters: 22 °C, aqueous buffer, thermodynamic from solid; 20 mM citric acid media, pH 2.47, 22 ± 1° C., Compound A in excess; read-out: Solubility
observedProperty: solubility (µg/mL)
Respond numerically; units are µg/mL and should not be typed.

Ask | solubility for CCn1nc(C)cc1C(=O)Nc1nc2cc(C(N)=O)cc(OC)c2n1C/C=C/Cn1c(NC(=O)c2cc(C)nn2CC)nc2cc(C(N)=O)cc(OCCCN3CCOCC3)c21 ?
Reply | 456

###

testDescription: Solubility in 20 mM acetic, citric and L-aspartic aqueous media as a function of pH (Example 14)
Format: physicochemical
conditionParameters: 22 °C, aqueous buffer, thermodynamic from solid; 20 mM L-aspartic acid media, pH 3.23, 22 ± 1° C., Compound A in excess; read-out: Solubility
observedProperty: solubility (mg/mL)
Respond numerically; units are mg/mL and should not be typed.

Ask | solubility for CCn1nc(C)cc1C(=O)Nc1nc2cc(C(N)=O)cc(OC)c2n1C/C=C/Cn1c(NC(=O)c2cc(C)nn2CC)nc2cc(C(N)=O)cc(OCCCN3CCOCC3)c21 ?
Reply | 3.97
